# System: LS-411N (Colorectal Carcinoma);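 note: after 72 h of two-drug dosing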
# Procedure Summary: Bliss excess, mean over the matrix (fraction); higher = more synergy
The reader will find reported Bliss excess values listed item by item below.

Given COc1nnc2ccc(N3CCC(c4ccc(OCCN5CCN(C)C(=O)[C@H]5C)cc4)CC3)nn12 [AZD5153] + C[C@@H]1COCCN1C2=NC(=NC(=C2)C3(CC3)[S@](=N)(=O)C)C4=C5C=CNC5=NC=C4 [AZD6738] (first compound max 1 µM, 7x7, partner max 10 µM) , state its recorded Bliss excess. 0.0754

Now give it for CC1(C)CCC(CN2CCN(c3ccc(C(=O)NS(=O)(=O)c4ccc(NCC5CCOCC5)c([N+](=O)[O-])c4)c(Oc4cnc5[nH]ccc5c4)c3)CC2)=C(c2ccc(Cl)cc2)C1 [Venetoclax] + COc1cc(Nc2ncc3c(n2)-c2ccc(Cl)cc2C(c2c(F)cccc2OC)=NC3)ccc1C(=O)O [Alisertib] (first compound max 1 µM, 7x7, partner max 10 µM) too. -0.0329

Follow-up entry: C=CCn1c(=O)c2cnc(Nc3ccc(N4CCN(C)CC4)cc3)nc2n1-c1cccc(C(C)(C)O)n1 [AZD1775] + C1CN(CCC1(C(=O)N[C@@H](CCO)C2=CC=C(C=C2)Cl)N)C3=NC=NC4=C3C=CN4 [Capivasertib] (first compound max 3 µM, partner max 3 µM) -0.0551

Input NC1(C(=O)N[C@@H](CCO)c2ccc(Cl)cc2)CCN(c2ncnc3[nH]ccc23)CC1 [Capivasertib] + CCN(CCO)CCCOc1ccc2c(Nc3cc(CC(=O)Nc4cccc(F)c4)[nH]n3)ncnc2c1 [AZD2811] (first compound max 10 µM, 7x7, partner max 1 µM) -0.0556

Now this one: Cn1cnc2c(F)c(Nc3ccc(Br)cc3Cl)c(C(=O)NOCCO)cc21 [Selumetinib] + CCN(CCO)CCCOc1ccc2c(Nc3cc(CC(=O)Nc4cccc(F)c4)[nH]n3)ncnc2c1 [AZD2811] (first compound max 10 µM, 7x7, partner max 1 µM) -0.0115

Now try COc1cc2c(cc1OCCCCCOc1cc3c(cc1OC)C(=O)N1C=C(C)C[C@H]1C=N3)N=C[C@@H]1CC(C)=CN1C2=O [SG3199] + O=C(c1cc(Cc2n[nH]c(=O)c3ccccc23)ccc1F)N1CCN(C(=O)C2CC2)CC1 [Olaparib] (first compound max 0.001 µM, 7x7, partner max 10 µM) . -0.0255

Can you check Cc1c2c(nn1C)CSCc1cc(n(C)n1)CSc1cc(c3ccccc3c1)OCCCc1c(C(=O)O)n(C)c3c-2c(Cl)ccc13 [AZD5991] + C=CCn1c(=O)c2cnc(Nc3ccc(N4CCN(C)CC4)cc3)nc2n1-c1cccc(C(C)(C)O)n1 [AZD1775] (first compound max 1 µM, partner max 1 µM) next? 0.0376

###

# Tested on: NCI-H2087 (Lung Adenocarcinoma)
# Procedure Summary: combination Emax (second highest fraction inhibited in the dose matrix, 72 h); higher = more inhibition; extreme values may be limits of the assay
Measure: combination Emax

Completed entries (count: 2):
Cn1cnc2c(F)c(Nc3ccc(Br)cc3Cl)c(C(=O)NOCCO)cc21 [Selumetinib] + C=CCn1c(=O)c2cnc(Nc3ccc(N4CCN(C)CC4)cc3)nc2n1-c1cccc(C(C)(C)O)n1 [AZD1775] (first compound max 10 µM, partner max 1 µM)	0.559
CN(CCO)CC[C@H](CSc1ccccc1)Nc1ccc(S(=O)(=O)NC(=O)c2ccc(N3CCC([C@@H](O)c4ccccc4-c4ccc(Cl)cc4)CC3)cc2)cc1S(=O)(=O)C(F)(F)F [AZD4320] + CN(C)CCCOc1ccc(-c2ccc3ncc4c(c3c2)n(C2CCOCC2)c(=O)n4C)cn1 [AZD0156] (first compound max 1 µM, 7x7, partner max 1 µM)	0.321

What value of combination Emax has been recorded for this entry: Cc1c2c(nn1C)CSCc1cc(n(C)n1)CSc1cc(c3ccccc3c1)OCCCc1c(C(=O)O)n(C)c3c-2c(Cl)ccc13 [AZD5991] + CS(=O)(=O)CCNCc1ccc(-c2ccc3ncnc(Nc4ccc(OCc5cccc(F)c5)c(Cl)c4)c3c2)o1 [Lapatinib] (first compound max 1 µM, 7x7, partner max 10 µM) 0.275

Follow-up entry: CCN(CCO)CCCOc1ccc2c(Nc3cc(CC(=O)Nc4cccc(F)c4)[nH]n3)ncnc2c1 [AZD2811] + C[C@@H]1COCCN1C2=NC(=NC(=C2)C3(CC3)[S@](=N)(=O)C)C4=C5C=CNC5=NC=C4 [AZD6738] (first compound max 1 µM, 7x7, partner max 10 µM) 0.662

Provenance of the data: the supplement of paper PMC11061612
